Origin of the recorded values: ChEMBL document CHEMBL1833859

assay.target: Aurora kinase B (Homo sapiens, UniProt Q96GD4)
Sequence (Q96GD4 whole entry): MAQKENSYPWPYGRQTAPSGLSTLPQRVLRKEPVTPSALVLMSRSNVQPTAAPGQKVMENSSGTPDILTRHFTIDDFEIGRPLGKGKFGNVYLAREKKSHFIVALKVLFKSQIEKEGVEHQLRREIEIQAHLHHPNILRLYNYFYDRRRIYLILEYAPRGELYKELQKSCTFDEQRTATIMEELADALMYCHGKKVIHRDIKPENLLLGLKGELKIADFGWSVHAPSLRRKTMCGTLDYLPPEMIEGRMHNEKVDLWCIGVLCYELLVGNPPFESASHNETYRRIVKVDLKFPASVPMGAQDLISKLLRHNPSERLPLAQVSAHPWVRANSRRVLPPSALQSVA
Labelling: IC50 reported below 2 µM becomes true; at or above becomes false.

The following compounds have reported results that may help.
O=C(c1ccc(Nc2nc(C3CC3)cn3c(-c4cn[nH]c4)cnc23)cc1Cl)N1CCNCC1 = false
Cc1cn2c(-c3cn[nH]c3)cnc2c(Nc2ccnc(N3CCNCC3)c2)n1 = true
CC1(C)CN(C(=O)c2ccc(Nc3nc(C4CC4)cn4c(-c5cn[nH]c5)cnc34)cc2Cl)CCN1 = false
Cc1cn2c(-c3cn[nH]c3)cnc2c(Nc2ccc(C(=O)N3CCNCC34CC4)c(Cl)c2)n1 = true
Cc1cn2c(-c3cn[nH]c3)cnc2c(Nc2ccc(C(=O)N3CCNC4(CC4)C3)c(Cl)c2)n1 = false
O=C(c1ccc(Nc2nc(C3CC3)cn3c(-c4cn[nH]c4)cnc23)cc1Cl)N1C[C@H]2CC[C@@H]1CN2 = false
O=C(c1ccc(Nc2nc(C3CC3)cn3c(-c4cn[nH]c4)cnc23)cc1Cl)N1CCNC2(CC2)C1 = false
CC1(C)CN(C(=O)c2ccc(Nc3nc(C4CC4)cn4c(-c5cn[nH]c5)cnc34)c(F)c2)CCN1 = false
Cc1cn2c(-c3cn[nH]c3)cnc2c(Nc2ccc(C(=O)N3CCNCC3)c(C(F)(F)F)c2)n1 = true
Cc1cn2c(-c3cn[nH]c3)cnc2c(Nc2ccc(C(=O)N3CCNCC3)cc2F)n1 = false

Switching to the query record.
// query In the record for O=C(c1ccc(Nc2nc(C3CC3)cn3c(-c4cn[nH]c4)cnc23)cc1Cl)N1C[C@H]2CC[C@@H](C1)N2 , is IC50 less than 2 µM?
// result false
